assay target: mutant human A2BAR (K269^7.32L) (Homo sapiens, UniProt P29275, K269L)
procedure text: Homologous competition binding of PSB-603 vs [3H]PSB-603 at mutant
setup conditions: K269^7.32L mutant
measured parameter: Kd (nM)

- CCCn1c(=O)[nH]c2nc(-c3ccc(S(=O)(=O)N4CCN(c5ccc(Cl)cc5)CC4)cc3)[nH]c2c1=O [PSB-603]: 0.292

###

Measured A3AR vs. Radioligand [3H]PSB-11 % inhibition at 1 µM, listed per entry for reference.
assay target: human A3AR (Homo sapiens, UniProt P0DMS8)
Construct: expressed in transfected cells; host or cells: FreeStyle CHO-S cells, pcDNA3.1(+), transient
Sequence (P0DMS8 1-318): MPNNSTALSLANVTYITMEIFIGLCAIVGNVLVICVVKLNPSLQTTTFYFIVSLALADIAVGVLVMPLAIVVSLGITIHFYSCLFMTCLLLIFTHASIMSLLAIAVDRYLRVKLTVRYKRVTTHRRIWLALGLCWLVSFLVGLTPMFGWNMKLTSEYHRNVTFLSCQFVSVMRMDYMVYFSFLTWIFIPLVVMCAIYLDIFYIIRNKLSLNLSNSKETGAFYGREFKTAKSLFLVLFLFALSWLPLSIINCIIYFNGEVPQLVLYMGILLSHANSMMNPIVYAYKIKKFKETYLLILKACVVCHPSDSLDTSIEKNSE
procedure text: Competitive radioligand binding vs [3H]PSB-11
setup conditions: 1 µM
measured parameter: A3AR vs. Radioligand [3H]PSB-11 % inhibition at 1 µM (%)

- CCCn1c(=O)[nH]c2nc(-c3ccc(S(=O)(=O)N4CCC(NC(=O)c5ccc(S(=O)(=O)F)cc5)CC4)cc3)[nH]c2c1=O [compound 12]: 15
- CCCn1c(=O)c2[nH]c(-c3ccc(S(=O)(=O)F)cc3)nc2n(C)c1=O [6b]: 13
- CCCn1c(=O)c2[nH]c(-c3ccc(S(=O)(=O)F)cc3)nc2n(C2CC2)c1=O [6c]: 33
- CCCn1c(=O)[nH]c2nc(-c3ccc(S(=O)(=O)F)cc3)[nH]c2c1=O [6a]: 27

###

assay target: A2BAR (Homo sapiens, UniProt P29275)
Sequence (P29275 1-332): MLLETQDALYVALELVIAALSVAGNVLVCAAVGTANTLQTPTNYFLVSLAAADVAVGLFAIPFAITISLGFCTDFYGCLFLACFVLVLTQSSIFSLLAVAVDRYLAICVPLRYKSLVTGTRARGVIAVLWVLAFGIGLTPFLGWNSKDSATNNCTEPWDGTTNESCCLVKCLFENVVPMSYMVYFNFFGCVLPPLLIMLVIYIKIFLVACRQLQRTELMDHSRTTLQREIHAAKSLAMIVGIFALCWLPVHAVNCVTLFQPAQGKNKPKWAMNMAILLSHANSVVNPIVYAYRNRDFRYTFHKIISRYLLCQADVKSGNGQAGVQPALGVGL
procedure text: TRUPATH BRET2 Gα15 protein activation assay (NECA-induced), HEK293 cells
Measured IC50, listed per entry for reference.
measured parameter: IC50 (nM)

- CCCn1c(=O)c2[nH]c(-c3ccc(S(=O)(=O)F)cc3)nc2n(C)c1=O [6b]: 15.3
- CCCn1c(=O)[nH]c2nc(-c3ccc(S(=O)(=O)F)cc3)[nH]c2c1=O [6a]: 4.57
- CCCn1c(=O)c2[nH]c(-c3ccc(S(=O)(=O)F)cc3)nc2n(C2CC2)c1=O [6c]: 284
- CCCn1c(=O)[nH]c2nc(-c3ccc(S(=O)(=O)N4CCC(NC(=O)c5ccc(S(=O)(=O)F)cc5)CC4)cc3)[nH]c2c1=O [compound 12]: 59.2
